Hey, just so you know, these numbers are from patent US9546139B2.

molecular target: mouse P2X1 receptor (Mus musculus); construct: EST clones containing full-length cDNAs of mouse P2X1 (clone ID: 4189541) and human P2X7 receptor (clone ID: 5286944); host or cells: Xenopus oocytes (cRNA injected); assay: Two-electrode voltage clamp, ATP-induced ion current in Xenopus oocytes expressing mouse P2X1; format: cell-based; settings: Table 2; 10 μM compound; ion current induced by 2 μM ATP; mean ± SEM, n = 4; read-out: % inhibition mP2X1
Sequence (P51576 whole entry): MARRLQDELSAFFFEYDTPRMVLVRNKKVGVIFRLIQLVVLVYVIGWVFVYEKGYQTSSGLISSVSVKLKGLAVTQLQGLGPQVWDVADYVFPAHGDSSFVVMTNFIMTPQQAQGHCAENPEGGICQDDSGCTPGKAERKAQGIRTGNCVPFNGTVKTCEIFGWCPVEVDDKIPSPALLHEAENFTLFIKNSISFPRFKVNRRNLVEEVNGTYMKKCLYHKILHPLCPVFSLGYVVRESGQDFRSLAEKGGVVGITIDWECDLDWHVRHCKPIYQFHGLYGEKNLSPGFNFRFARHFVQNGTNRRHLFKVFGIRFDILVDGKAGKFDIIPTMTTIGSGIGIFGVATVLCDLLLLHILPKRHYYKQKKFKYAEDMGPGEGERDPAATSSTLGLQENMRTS
A collection of compounds and their measured inhibition at 10 µM
Give the quantity in %, number only.

For orientation, consider the following solved cases.
# Compound, Target of assay, Readout units, Observed result
rows = [
    ("COc1ccc(CCc2nc(C)c(O)c(C(=O)O)c2C(=O)O)cc1 [Compound 37]", "mouse P2X1 receptor (Mus musculus)", "%", 78),
    ("COc1ccc(CCc2nc(C)c(O)c(C=O)c2CCC(=O)O)cc1 [Compound 61]", "mouse P2X1 receptor (Mus musculus)", "%", 50.9),
    ("Cc1nc(CCc2ccccc2)c(C(=O)O)c(C(=O)O)c1O [Compound 36]", "mouse P2X1 receptor (Mus musculus)", "%", 77),
    ("COc1ccc(CCc2nc(C)c(O)c(C=O)c2/C=C/C(=O)O)cc1 [Compound 64]", "mouse P2X1 receptor (Mus musculus)", "%", 51.4),
    ("Cc1nc(CCc2ccc(C(=O)O)cc2)c(C(=O)O)c(C(=O)O)c1O [Compound 39]", "mouse P2X1 receptor (Mus musculus)", "%", 82),
]

Would you kindly share the measured inhibition at 10 µM for COc1ccccc1/C=C/c1nc(C)c(O)c(C(C)=O)c1C(=O)O [Compound 49] ? 11.4

Would you kindly share the measured inhibition at 10 µM for COc1ccc(CCc2nc(C)c(O)c(C(C)=O)c2C(=O)O)cc1 [Compound 46] ? 52

Would you kindly share the measured inhibition at 10 µM for CC(=O)c1c(O)c(C)nc(CCc2ccccc2)c1C(=O)O [Compound 45] ? 47.9

Would you kindly share the measured inhibition at 10 µM for COc1cccc(/C=C/c2nc(C)c(O)c(C(C)=O)c2C(=O)O)c1 [Compound 48] ? 29.9

====

Biological target: human P2X3 receptor (Homo sapiens)
Construct: expressed in transfected cells; host or cells: Xenopus oocytes (cRNA injected); cDNA from the Max-Planck Institute laboratory (Dr. W. Stuhmer and Dr. F. Soto)
Sequence (P56373 1-397): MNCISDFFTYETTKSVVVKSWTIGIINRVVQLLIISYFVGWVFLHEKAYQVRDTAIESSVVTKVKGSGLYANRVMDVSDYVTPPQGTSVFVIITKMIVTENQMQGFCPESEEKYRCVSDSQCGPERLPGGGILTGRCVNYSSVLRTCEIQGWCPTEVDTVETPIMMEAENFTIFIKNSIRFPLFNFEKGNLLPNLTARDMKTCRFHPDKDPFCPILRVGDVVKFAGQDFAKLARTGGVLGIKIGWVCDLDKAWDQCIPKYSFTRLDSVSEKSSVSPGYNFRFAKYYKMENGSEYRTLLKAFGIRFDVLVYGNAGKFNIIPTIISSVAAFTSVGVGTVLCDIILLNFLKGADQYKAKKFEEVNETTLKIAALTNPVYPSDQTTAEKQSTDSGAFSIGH
Assay: Two-electrode voltage clamp, ATP-induced ion current in Xenopus oocytes expressing human P2X3
Type: cell-based
Conditions: Table 2; 10 μM compound; ion current induced by 2 μM ATP; mean ± SEM, n = 4; read-out: % inhibition hP2X3
Metric: inhibition at 10 µM (%)
Give the quantity in %, number only.

For orientation, consider the following solved cases.
# Structure notation, inhibition at 10 µM, %
data = [
    ("Cc1nc(Cc2ccccc2)c(C(=O)O)c(C(=O)O)c1O", 31.4),
    ("CC(=O)c1c(O)c(C)nc(Cc2ccccc2)c1C(=O)O", 18.3),
    ("COc1ccc(CCc2nc(C)c(O)c(C=O)c2CCC(=O)O)cc1", 70.5),
    ("COc1ccc(CCc2nc(C)c(O)c(C(=O)O)c2C(=O)O)cc1", 59.8),
    ("Cc1nc(Cc2cccc3ccccc23)c(C(=O)O)c(C(=O)O)c1O", 67.9),
]

Now, please, on to the next compound.
Would you kindly share the measured inhibition at 10 µM for Cc1nc(C=Cc2ccccc2)c(C(=O)O)c(C(=O)O)c1O ? 48.4
